For each entry below, report its TGI value.
System: HOP-18 NSCLC
experiment_notes: NCI tumour cell line growth inhibition, 48 h

Below are worked cases with known answers.
compound	observed_result
CC(C)C(=O)N1C(=O)O[C@@H](c2ccccc2)[C@H]1C	> 100 µM
Cc1ccc(O)c(N=Nc2ccc(S(=O)(=O)O)cc2)n1	> 100 µM
Cc1noc(C)c1C1=CCCCc2ccccc21	> 100 µM
CC(C)=CC1CCc2ccccc2N1S(=O)(=O)c1ccc(C)cc1 (stereo unspecified)	> 100 µM
CCCNC(=O)C(C)(Cl)C(=O)c1ccccc1O (stereo unspecified)	> 100 µM
NC(=O)C1(c2ccccc2)Nc2ccccc2S1 (stereo unspecified)	> 100 µM
FC(F)(F)C1(Cl)C(Cl)(c2ccccc2)C1(Cl)c1ccccc1 (stereo unspecified)	23.1 µM
O=C1C=CC(=O)c2ccc(=O)ccc21	39.1 µM

// for each compound in input: emit TGI
1. O=C(/C(=C\c1ccccc1)CN1CCOCC1)c1ccc(Br)cc1
2. COc1ccc(NC(=O)C2C(=O)N(c3ccc(OC)cc3)C(=O)/C2=N\N)cc1 (stereo unspecified)
3. Cc1cccc(C)c1NC(=O)C(=O)C(C#N)c1ccccc1Cl (stereo unspecified)

Output:
1. 3.85 µM
2. > 100 µM
3. > 100 µM
